Measured Tm shift relative to glycine control, listed per entry for reference.
# Test system: Glutamate receptor ionotropic, NMDA 3A (GRIN3A) ligand-binding domain
# assay.text: binders of NR3A ligand-binding domain, primary screen, biophysical, differential scanning fluorimetry, uHTS (AID 1259313)
# conditions: NR3A LBD differential scanning fluorimetry, at 25 µM, stronger effect = higher value, 0% = protein alone, 100% = glycine-bound protein
In all, about 340,000 compounds went through this assay and about 8,500 (2.5%) were called active. The sample holds actives, similar compounds and a random draw of the others, so the mix is not that of the screen.
Dear colleague, please return just the value in %, with no unit written.

The cases that follow already have their Tm shift relative to glycine control on record.
Cc1c(C(=O)Nc2cccc(S(=O)(=O)N3CCOCC3)c2)oc2ccccc12 = -5.92
CCCCc1ccc(NC(=O)CN2C(=O)NC(Cc3ccccc3)C2=O)cc1 (stereo unspecified) = 38.2
Cc1cc(Cl)ccc1C(=O)C1CCCN(C(=O)CCN2CCCO2)C1 (stereo unspecified) = -1.36
Cc1cc(C)c(NC(=O)CN2C(=O)NC(Cc3ccccc3)C2=O)c(C)c1 (stereo unspecified) = 0.16
O=C(Nc1ccc(Br)cc1)c1cccc(NC(=O)C2C3CC4OC(=O)C2C4C3)c1 (stereo unspecified) = -8.89

Enquiry: Consider the compound O=C(Nc1cccc(S(=O)(=O)N2CCCC2)c1)c1cncc(Br)c1 and give its measured Tm shift relative to glycine control.
Return: -1.22

Enquiry: How about C#CCO[C@@H]1C[C@H](n2cnc3c(=O)[nH]c(NC(=O)C(C)C)nc32)O[C@@H]1CO ?
Return: 0

Enquiry: How about COc1ccc(NC(=O)c2oc3ccc(S(=O)(=O)N4CCOCC4)cc3c2C)cc1 ?
Return: 14.9

Enquiry: How about C=CCC1(C#N)C(=S)NC(C)=C(C(=O)OCC)C1c1ccccc1 (stereo unspecified) ?
Return: -1.45

Enquiry: How about O=C(Cn1cc(/C=N/NC(=O)c2cccc(C(F)(F)F)c2)c2ccccc21)Nc1ccc(F)cc1 ?
Return: 15.8

====

Measured Tm shift relative to glycine control, listed per entry for reference.
# System: Glutamate receptor ionotropic, NMDA 3A (GRIN3A) ligand-binding domain
# assay.text: binders of NR3A ligand-binding domain, primary screen, biophysical, differential scanning fluorimetry, uHTS (AID 1259313)
# conditions: NR3A LBD differential scanning fluorimetry, at 25 µM, stronger effect = higher value, 0% = protein alone, 100% = glycine-bound protein
Out of some 340,000 compounds screened, about 8,500 (2.5%) were called active. For the sample, actives were picked, then their nearest neighbours and some compounds at random.

The cases that follow already have their Tm shift relative to glycine control on record.
Cc1cccc(NC(=O)C2CCN(C(=O)NC3CCCCC3)CC2)c1 = -0.18% (inactive)
COc1ccc(N(CC(=O)Nc2ccc(C)cc2C)S(=O)(=O)c2ccccc2[N+](=O)[O-])c(OC)c1 = -2.12% (inactive)
CC(=O)c1ccc(NC(=O)Nc2ccc([N+](=O)[O-])cc2C)cc1 = 7.59% (inactive)
COc1ccccc1CNS(=O)(=O)c1ccc2c(c1)NC(=O)CS2 = 1.27% (inactive)

Shift focus to the following entry.
Enquiry: What value of Tm shift relative to glycine control on Glutamate receptor ionotropic, NMDA 3A (GRIN3A) ligand-binding domain does Cc1ccc(S(=O)(=O)N(CC(=O)Nc2cccc([N+](=O)[O-])c2)Cc2ccc(Cl)cc2)cc1 have?
Return: 3.38% (inactive)

====

# System: Glutamate receptor ionotropic, NMDA 3A (GRIN3A) ligand-binding domain
# assay.text: binders of NR3A ligand-binding domain, primary screen, biophysical, differential scanning fluorimetry, uHTS (AID 1259313)
# conditions: NR3A LBD differential scanning fluorimetry, at 25 µM, stronger effect = higher value, 0% = protein alone, 100% = glycine-bound protein
In all, about 340,000 compounds went through this assay and about 8,500 (2.5%) were called active. The list comes from a sample in which actives are over-represented; it also holds close analogues and randomly drawn compounds.
metric: Tm shift relative to glycine control (%)
Dear colleague, please return just the value in %, with no unit written.

CC(N=Cc1nc(-c2ccccc2)oc1O)c1ccccc1 (stereo unspecified) = 1.17
CCOc1ccc2nc(C(=O)N3CCCC(C)C3)sc2c1 (stereo unspecified) = 3.03
Cc1cc(=O)cc(C)[nH]1 = 13
NC(=O)C(Cc1ccccc1)NC(=O)C12CC3CC(CC(C3)C1)C2 (stereo unspecified) = 1.38

Enquiry: Consider the molecule Cc1nn(Cc2ccc(Cl)cc2)c(Cl)c1/C=N/NC(=O)CNc1ccccc1F and give its measured Tm shift relative to glycine control.
Return: 16.1

Enquiry: How about CSc1cc(C)[nH]c(=O)n1 ?
Return: 1.65

====

# Test system: Glutamate receptor ionotropic, NMDA 3A (GRIN3A) ligand-binding domain
# assay.text: binders of NR3A ligand-binding domain, primary screen, biophysical, differential scanning fluorimetry, uHTS (AID 1259313)
# conditions: NR3A LBD differential scanning fluorimetry, at 25 µM, 0% = protein alone, 100% = glycine-bound protein
In all, about 340,000 compounds went through this assay and about 8,500 (2.5%) were called active.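 How the source made its calls: active means melting temperature shift of at least 10% of the positive control shift, at one fixed dose; inactive means the rest.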 This excerpt belongs to a sample that is enriched for actives.
Respond using exactly one of the listed classes: active, inactive

Record excerpt, results attached:
COc1cc(NC(=O)c2cccs2)ccc1NC(=O)c1ccccc1Cl = active
COC(=O)c1ccc(NC(=O)C(C)N2C(=O)c3ccccc3C2=O)cc1 (stereo not drawn) = inactive
O=C(Nc1ccc(NC(=O)c2ccc3c(c2)OCO3)cc1)c1cccc(Cl)c1 = inactive
CCOC(=O)C1CCN(C(=O)COC(=O)C2CCN(S(=O)(=O)c3ccc4c(c3)OCCO4)CC2)CC1 = inactive
C#CCNC(=O)C1=C[C@@H](c2ccccc2)[C@H](CCCO)[C@@H](OCC)O1 = inactive
Cc1cc(C)c2c(c1)c(C)cc1nnc(SCC(=O)NCc3ccco3)n12 = inactive
COc1cc2ccccc2cc1C(=O)Nc1ccncc1 = inactive
Cc1cc(NC(=O)c2ccc(F)cc2)ccc1NC(=O)c1ccco1 = inactive
COc1cc2ccccc2cc1C(=O)Nc1ccc(S(=O)(=O)Nc2cc(C)on2)cc1 = inactive
COc1cc(OC)cc(-c2cc3ccc(F)cc3cn2)c1 = inactive

Now for another entry.
Enquiry: Test call, this compound: COc1cc2ccccc2cc1C(=O)Nc1ccc(NC(=O)c2cccs2)cc1
Return: active

====

# Test system: Glutamate receptor ionotropic, NMDA 3A (GRIN3A) ligand-binding domain
# assay.text: binders of NR3A ligand-binding domain, primary screen, biophysical, differential scanning fluorimetry, uHTS (AID 1259313)
# conditions: NR3A LBD differential scanning fluorimetry, at 25 µM, 0% = protein alone, 100% = glycine-bound protein
Among all 340,000 compounds or so, about 8,500 (2.5%) were called active.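 Rule for the calls: active = melting temperature shift of at least 10% of the positive control shift, at one fixed dose; inactive = the rest.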 Many of the other results were omitted from the sample, so actives are more common in it than they were.
Respond using exactly one of the listed classes: y for active, n for inactive

Record excerpt, results attached:
CC(=O)CSc1nnc(CSc2ncccn2)n1C1CCCCC1 = n
O=C(Nc1nnc(SCc2ccc(Cl)cc2Cl)s1)C1COc2ccccc2O1 (configuration not stated) = y
Cc1ccc(C)c(C(=O)N2CCC(n3nccc3NC(=O)C3CC3)CC2)c1 = n

Enquiry: Test call, this molecule: CC(C)(C)NC(=O)CN(Cc1cccs1)C(=O)CNS(=O)(=O)c1ccccc1
Return: n

Enquiry: How about COc1ccc2c(c1)OC(O)(C(F)(F)C(F)F)CC2=O (configuration not stated) ?
Return: n

Enquiry: How about O=c1[nH]c2cccnc2n(CCNc2ncc(C(F)(F)F)cc2Cl)c1=O ?
Return: n

====

# Tested on: Glutamate receptor ionotropic, NMDA 3A (GRIN3A) ligand-binding domain
# assay.text: binders of NR3A ligand-binding domain, primary screen, biophysical, differential scanning fluorimetry, uHTS (AID 1259313)
# conditions: NR3A LBD differential scanning fluorimetry, at 25 µM, 0% = protein alone, 100% = glycine-bound protein
The campaign covered roughly 340,000 compounds. About 8,500 (2.5%) were called active.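 Rule for the calls: active = melting temperature shift of at least 10% of the positive control shift, at one fixed dose; inactive = the rest.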 The entries come from a sample that favours actives as a whole.
Respond using exactly one of the listed classes: class 1 for active, class 0 for inactive

COc1cc2c(cc1OC)C(c1ccccc1Br)NC(=O)C2 (stereo unspecified) = class 0
O=[N+]([O-])c1ccc(COc2ccccc2CN2CCOCC2)cc1 = class 0
COc1cccc(NC(C)=[N+](C)CCNS(=O)(=O)c2ccc(Cl)cc2)c1 = class 0

Enquiry: Test call, this molecule: O=C1c2cccc3cccc(c23)C(=O)N1c1cccc(O)c1
Return: class 0

Enquiry: How about CC1(C)CC(=O)C=C(NCCCN2CCCC2=O)C1 ?
Return: class 0

Enquiry: How about CCNS(=O)(=O)c1ccc(NC(=O)Nc2cccc(C(F)(F)F)c2)cc1 ?
Return: class 1

====

# Test system: Glutamate receptor ionotropic, NMDA 3A (GRIN3A) ligand-binding domain
# assay.text: binders of NR3A ligand-binding domain, primary screen, biophysical, differential scanning fluorimetry, uHTS (AID 1259313)
# conditions: NR3A LBD differential scanning fluorimetry, at 25 µM, stronger effect = higher value, 0% = protein alone, 100% = glycine-bound protein
In all, about 340,000 compounds went through this assay and about 8,500 (2.5%) were called active. What follows is part of a selection rich in actives, with near analogues and random picks from the rest.
metric: Tm shift relative to glycine control (%)
Dear colleague, please return just the value in %, with no unit written.

The cases that follow already have their Tm shift relative to glycine control on record.
Cc1onc(-c2ccccc2Cl)c1C(=O)OCC(=O)c1ccccc1 = -1.07
CCOC(=O)c1c(-c2cccc(C)c2)csc1NC(=O)c1c(-c2ccccc2)noc1C = -0.48
Cc1[nH]c2ccccc2c1C(=O)COC(=O)c1c(-c2ccccc2)noc1C = 18.8
O=C(Nc1nnc(CCN2CCCCC2)s1)c1cccc(Cl)c1 = -1.3
CC/C(=N\O)C(C)(C)/[N+]([O-])=C/c1ccc(Br)cc1 = 0.62
Cc1c(Cl)cccc1NC(=O)CC1SC(=NCC2CCCO2)NC1=O (stereo not given) = -1.26
O=C(Nc1ccc(Cl)c(Cl)c1)N1CC=C(c2ccccc2)CC1 = 12.9
CC(C(=O)Nc1ccc(S(=O)(=O)N2CCCC2)cc1)N(C)Cc1ccc(F)cc1 (stereo not given) = -1.56

Enquiry: Consider the compound Cc1ccc(CNC(=O)CC2Sc3ccccc3NC2=O)cc1 (stereo not given) and give its measured Tm shift relative to glycine control.
Return: -1.5

Enquiry: How about CC(C)CN(C(=O)CN1CCN(S(=O)(=O)c2ccccc2)CC1)c1c(N)n(CC(C)C)c(=O)[nH]c1=O ?
Return: -2.36
